The values you see were collected from paper PMC5421785.

Target: DRB1*16:02 (Homo sapiens, UniProt P01903+P01911, A100R/F76Y/I96L/Q99D/V115G)
Assay: HLA class II peptide binding, inhibition of radiolabeled peptide binding to purified MHC
Details: SE-, competition with radiolabeled peptide, two-day incubation, three or more independent experiments
Ends that are not written are not given here.

sequence.chain | IC50, µM
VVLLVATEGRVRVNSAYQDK [Aggrecan 84–103 WT] | 20.5
NQDFTNRINKLKNS [Fibrinogen 78–91 WT] | 8.43
SAVRLRSSVPGVR [Vimentin 66–78 WT] | 1.08
LQYMRADQAAGGLR [Collagen II 1236–1249 WT] | 23.1

----------
// reported IC50 for each item listed
Target: HLA-DRB1*01:01 (Homo sapiens, UniProt P01903+P01911, A100R/D57E/F55L/F60I/F76Y/I96L/L162R/M171V/P40L/Q125E/R42F/V115G/Y59C)
Construct: EBV transformed homozygous cell lines were used as sources of MHC molecules; endogenous in cells; host or cells: EBV transformed homozygous cell lines
Assay: HLA class II peptide binding, inhibition of radiolabeled peptide binding to purified MHC
Details: citrullinated 15-mer peptide (X = citrulline); purified HLA-DRB1*01:01; read-out: DRB1*01:01 binding capacity, Cit peptide (IC50 nM)
Square brackets hold non-standard residues; d marks the D form. Peptide text beside a SMILES is read from it. Cit = NC(=O)NCCC[C@H](N)C(=O)O

compound | unit.symbol | censoring.qualifier | IC50
CC(C)C[C@H](NC(=O)CNC(=O)[C@H](CCC(N)=O)NC(=O)[C@@H]1CCCN1C(=O)CNC(=O)[C@@H]1CCCN1C(=O)[C@@H]1CCCN1C(=O)CNC(=O)[C@H](CCC(=O)O)NC(=O)[C@H](C)NC(=O)CN)C(=O)N[C@@H](C)C(=O)NCC(=O)N[C@@H](CCC(N)=O)C(=O)N[C@@H](CCCNC(N)=O)C(=O)O [GAEGPPGPQGLAGQX] (H-GAEGPPGPQGLAGQ[Cit]-OH; N-terminus and C-terminus assumed) | nM | > | 40000
CC(C)C[C@H](NC(=O)CNC(=O)[C@@H]1CCCN1C(=O)[C@H](Cc1ccccc1)NC(=O)CNC(=O)[C@H](CCCNC(N)=O)NC(=O)[C@@H](N)CCC(=O)O)C(=O)N1CCC[C@H]1C(=O)NCC(=O)N1CCC[C@H]1C(=O)N[C@@H](CO)C(=O)NCC(=O)N[C@@H](CCC(=O)O)C(=O)N1CCC[C@H]1C(=O)NCC(=O)O [EXGFPGLPGPSGEPG] (H-E[Cit]GFPGLPGPSGEPG-OH) | nM | = | 2210
CC(C)C[C@H](NC(=O)CNC(=O)[C@@H]1CCCN1C(=O)[C@H](Cc1ccccc1)NC(=O)CNC(=O)[C@H](CCCNC(=N)N)NC(=O)[C@H](CCC(=O)O)NC(=O)CNC(=O)[C@H](CCCNC(N)=O)NC(=O)[C@H](CCC(N)=O)NC(=O)CNC(=O)[C@@H]1CCCN1)C(=O)N1CCC[C@H]1C(=O)NCC(=O)N1CCC[C@H]1C(=O)O [PGQXGERGFPGLPGP] (H-PGQ[Cit]GERGFPGLPGP-OH) | nM | = | 6470

----------
Molecular target: HLA-DRB1*01:01 (Homo sapiens, UniProt P01903+P01911, A100R/D57E/F55L/F60I/F76Y/I96L/L162R/M171V/P40L/Q125E/R42F/V115G/Y59C)
Construct: EBV transformed homozygous cell lines were used as sources of MHC molecules; endogenous in cells; host or cells: EBV transformed homozygous cell lines
Assay: HLA class II peptide binding, inhibition of radiolabeled peptide binding to purified MHC
Settings: wild-type (unmodified Arg) 15-mer peptide; purified HLA-DRB1*01:01; read-out: DRB1*01:01 binding capacity, WT peptide (IC50 nM)
Ends that are not written are not given here.
Cut-off 800 nM on IC50: below means satisfied, at or above means not satisfied.

sequence.chain | label
GEESRISLPLPNFSS [Vimentin 406 WT] | satisfied
THSKRTLLIKTVETR [Vimentin 436 WT] | satisfied
AAGVKGDRGETGAVG [Collagen 1051 WT] | not satisfied
TNLDSLPLVDTHSKR [Vimentin 426 WT] | not satisfied
FAVEAANYQDTIGRL [Vimentin 351 WT] | satisfied
PGPAGPTGKQGDRGE [Collagen 1076 WT] | not satisfied
GPRGERGFPGERGSP [Collagen 696 WT] | not satisfied
GADGPPGRDGAAGVK [Collagen 1041 WT] | not satisfied
DGLAGPKGAPGERGP [Collagen 521 WT] | not satisfied
DALKGTNESLERQMR [Vimentin 331 WT] | not satisfied
TLLIKTVETRDGQVI [Vimentin 441 WT] | not satisfied
GPQGARGQPGVMGFP [Collagen 591 WT] | satisfied
PGLQGMPGERGAAGI [Collagen 746 WT] | satisfied
